# assay_details: compound effects on lung adenocarcinoma cell viability – A549, calcein-AM fluorescence, 48 h, basal, profiling panel (AID 1162); note: test concentration not given here
# condition_set: higher = more signal
measurement_name: z-score
Number, no unit, nothing else.

Inquiry: I have this compound here, NC(=O)N1C(=O)C2C(C1=O)C1C=C(CCCO)C2C(C2CC2)N1Cc1cc2c(cc1Br)OCO2 (stereo unspecified) , and I need its recorded z-score.
Reply text: -0.318

Inquiry: # query: z-score of entry `[N-]=[N+]=NCc1ccccc1[C@@H]1OC(c2ccc(OCCCO)cc2)=N[C@]1(CCS(=O)(=O)c1ccccc1)C(=O)N1CCCCC1`
Reply text: 1.26

Inquiry: Name the recorded z-score for `C=C(CCCC)/C(=C/C[C@@H](OC(C)=O)c1cccc(OCCO)c1)c1cnc2ccccc2c1` .
Reply text: 0.238

Inquiry: Name the recorded z-score for `O=C(O)[C@H](Cc1ccccc1)n1cc(-c2ccccc2)nn1` .
Reply text: -0.757

Inquiry: I have this compound here, CCOC(=O)C1=CCC(c2ccc(F)cc2)N(S(=O)(=O)c2ccc(C)cc2)C1 (stereo unspecified) , and I need its recorded z-score.
Reply text: -1.02

Inquiry: Reported z-score for `COCC(=C=CC[C@H](O)c1ccccc1OCCO)CCO` : what is it?
Reply text: 0.474

Inquiry: # input compound: `O=C1O[C@H](c2ccccc2)[C@H](c2ccccc2)N2[C@H]1[C@@H](C(=O)N1CCN(c3ncccn3)CC1)[C@]1(C(=O)Nc3ccc(C#CC4=CCCCC4)cc31)[C@H]2c1ccccc1OCCO` ; wanted: its z-score
Reply text: -1.02

Inquiry: Name the reported z-score value associated with the compound `COC(=O)[C@@]1(CCC(=O)OC(C)(C)C)N=C(c2ccc(OCCCO)cc2)O[C@H]1c1ccccc1`
Reply text: -1.68

* * *

# system_under_test: Alpha-bungarotoxin (Bungarus multicinctus)
# assay_details: compounds binding labelled alpha-BTX control protein – biochemical, small-molecule microarray, Alexa647 label, 635/667 nm fluorescence, artefact control for SMM control protein annotation, profiling panel (AID 1117)
# condition_set: alpha-BTX-A647 binding fluorescence, higher = more signal
Given measured composite z-score, output y if it is greater than or equal to 0.5 and n if not.

Use these answered entries as a reference point.
molecule: [N-]=[N+]=Nc1ccccc1[C@H]1OC(c2ccc(OCCCO)cc2)=N[C@@]1(CCS(=O)(=O)c1ccccc1)C(=O)NCc1ccccc1
system_under_test: Alpha-bungarotoxin (Bungarus multicinctus)
assigned_category: y
--
molecule: C[N+](C)(C)CCCC[C@@H]1NC(=O)[C@@H]2C[C@H](C(=O)NCCCCCCNC(=O)CS)[C@H](c3ccc(O)cc3)N2C1=O
system_under_test: Alpha-bungarotoxin (Bungarus multicinctus)
assigned_category: y
--
molecule: CC(C)CCC[C@@H](C)[C@H]1CC[C@@]2(C)C3=C(CC[C@]12C)[C@@]1(C)CC[C@H](OC(=O)c2ccc(C(F)(F)F)nc2)C(C)(C)C1CC3 (stereo not given in full)
system_under_test: Alpha-bungarotoxin (Bungarus multicinctus)
assigned_category: n

Then this molecule:
Inquiry: Textbook exercise: given the entry `COCC(=C=CC[C@H](O)c1cccc(OCCO)c1)C[C@H](O)c1cc(Cl)cc(Cl)c1O` , state whether its composite z-score is greater than or equal to 0.5.
Reply text: n

* * *

# assay_details: probe aNOTCH3 binding on compound microarray – biochemical, small-molecule microarray, 635/667 nm fluorescence, primary screen (AID 1120);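 note: probe is a biotin-tagged antibody raised against NOTCH3 rather than NOTCH3 protein; score merges spot fluorescence near 667 nm with spot signal to noise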
# condition_set: higher = more signal
measurement_name: composite z-score
Answer with a bare number; do not write a unit.

Inquiry: # lookup: composite z-score of `CCCC(=O)N(CCc1c[nH]c2ccccc12)[C@@H]1CC(C(=O)NCCO)=C[C@H](Oc2c(I)cc(CO)cc2OC)[C@H]1O`
Reply text: -0.0962

Inquiry: Which composite z-score value belongs to `CC(C)[Si](C#CCCCC#N)(Oc1ccccc1Br)C(C)C` ?
Reply text: -0.0377

Inquiry: Would you mind telling me what composite z-score value was observed for `CO[C@H]1O[C@H](CO)[C@@H](OC(=O)Nc2ccc(Br)cc2)[C@@H]2OC(=O)[C@H](Cc3cccc(Br)c3)C/C=C/C[C@@H](Cc3cccc(Br)c3)C(=O)O[C@@H]12` ?
Reply text: -0.0622

Inquiry: Fill in: composite z-score of NC(=O)N1C(=O)C2C(C1=O)C1C=C(CCCO)C2C(C2CC2)N1Cc1cc2c(cc1Br)OCO2 (centres undefined) is ___
Reply text: 0.0242
